test system: H1975 (lung adenocarcinoma, DM, L828R/T790M); assay: Antiproliferative activity on H1975 cells (Alamar Blue); type: cell-based; settings: Homo sapiens, NCI-H1975; H1975 cells, average values obtained in several tests, Table 16; read-out: H1975 (DM) IC50
pIC50: −log10 of the molar value.
Experimental endpoint: pIC50

(1) C=CC(=O)Nc1cc(Nc2nccc(C(=O)c3ccc(N4CCCC4)cc3)n2)c(OC)cc1N(C)CCN(C)C [EGFR_3365_63]
(2) C=CC(=O)Nc1cc(Nc2nccc(C(=O)c3ccc(OC)cc3OC(C)C)n2)c(OC)cc1N(C)CCN(C)C [EGFR_3365_104]
(3) C=CC(=O)Nc1cc(Nc2nccc(C(=O)c3ccc(NCCOC)cc3)n2)c(OC)cc1N(C)CCN(C)C [EGFR_3365_105]
Q. Given 3 compounds, produce a descending ranking by pIC50. Return value: ordered labels per request.
A. 1, 3, 2
(1: 8.70, 3: 7.67, 2: 6.59)

(a) C=CC(=O)Nc1cc(Nc2nccc(C(=O)c3ccc(OCc4ccccc4)cc3)n2)c(OC)cc1N(C)CCN(C)C [EGFR_3365_16]
(b) C=CC(=O)Nc1cc(Nc2cc(C(=O)c3ccc(-c4cnn(C)c4)cc3)ccn2)c(OC)cc1N(C)CCN(C)C [EGFR_3365_85]
Q. // which entry reports the smaller pIC50, a or b ? Respond using the label that marks the chosen record.
A. b
